Below, each entry is listed with its recorded IC50.
Biological target: human PCSK9 / human LDLR EGFa domain interaction (Homo sapiens (Human))
Sequence (Q8NBP7 153-692): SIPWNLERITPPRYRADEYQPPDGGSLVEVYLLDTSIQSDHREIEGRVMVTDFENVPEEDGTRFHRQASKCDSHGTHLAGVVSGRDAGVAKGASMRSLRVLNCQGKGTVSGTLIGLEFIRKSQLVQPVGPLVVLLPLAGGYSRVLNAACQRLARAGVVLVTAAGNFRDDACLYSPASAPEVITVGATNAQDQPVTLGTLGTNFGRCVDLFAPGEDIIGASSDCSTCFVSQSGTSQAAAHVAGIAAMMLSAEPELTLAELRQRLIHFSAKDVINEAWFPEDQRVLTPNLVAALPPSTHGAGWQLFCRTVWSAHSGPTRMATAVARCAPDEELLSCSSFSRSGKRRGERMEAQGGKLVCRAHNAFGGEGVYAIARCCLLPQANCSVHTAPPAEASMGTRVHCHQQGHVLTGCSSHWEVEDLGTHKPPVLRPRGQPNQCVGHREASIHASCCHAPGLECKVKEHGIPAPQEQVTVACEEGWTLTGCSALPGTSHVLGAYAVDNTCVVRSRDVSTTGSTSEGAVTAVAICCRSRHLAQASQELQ
Sequence (Q8NBP7 31-152 partner): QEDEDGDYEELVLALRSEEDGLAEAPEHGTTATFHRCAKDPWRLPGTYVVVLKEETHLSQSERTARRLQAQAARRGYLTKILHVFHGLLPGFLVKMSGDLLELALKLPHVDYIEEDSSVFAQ
Assay: TR-FRET assay of inhibition of the PCSK9-LDLR protein-protein interaction
Assay type: binding
Settings: TR-FRET, 20 nM human PCSK9, 20 nM human LDLR EGFa domain, 2 hours room temperature; read-out: IC50
Starred links: 1 amine or outer side, 2 acyl side, 3 side chain; linkers in the order of their positions; H or OH if unused. Positions of bridges follow the written chain, without caps; N, C: chain ends. Non-standard residues stand in square brackets, D forms with d. Residues, ends and D or L forms follow the SMILES beside them. Phe(4-COOH) = N[C@@H](Cc1ccc(C(=O)O)cc1)C(=O)O; Trp(5-F) = N[C@@H](Cc1c[nH]c2ccc(F)cc12)C(=O)O; Trp(6-F) = N[C@@H](Cc1c[nH]c2cc(F)ccc12)C(=O)O; mXylylene(5-F) = Fc1cc(C[*:1])cc(C[*:2])c1; Bip = N[C@@H](Cc1ccc(-c2ccccc2)cc1)C(=O)O; X4 = O=C(CCSCc1cccc(CSCCN[*:1])c1)[*:2]; mXylylene = c1cc(C[*:1])cc(C[*:2])c1; X22 = Oc1cc(C[*:1])cc(C[*:2])c1; αMeP = C[C@@]1(C(=O)O)CCCN1; Ahx = NCCCCCC(=O)O; Mpa = O=C(O)CCS
Recorded metric: IC50

INSERT INTO measurements (compound, value_reported) VALUES
  ('C[C@@]12CCCN1C(=O)[C@H](Cc1ccc(O)cc1)NC(=O)[C@H](Cc1c[nH]cn1)NC(=O)[C@H](CC(=O)O)NC(=O)[C@H](Cc1c[nH]c3ccc(F)cc13)NC(=O)[C@H](Cc1c[nH]c3ccc(F)cc13)NC(=O)CNC(=O)[C@H](CCCCN)NC(=O)CCSCc1cc(O)cc(c1)CSC[C@@H](C(N)=O)NC2=O [Compound 359] ([Mpa]KG[Trp(5-F)][Trp(5-F)]DHY[αMeP]C-NH2; linker 1-10 via X22)', '0.1 to 100 nM'),
  ('COc1ccc(C[C@@H]2NC(=O)[C@H]([C@@H](C)O)NC(=O)[C@]3(C)CCCN3C(=O)[C@H](Cc3c[nH]c4ccc(F)cc34)NC(=O)[C@H](Cc3c[nH]c4ccc(F)cc34)NC(=O)[C@@H](C)NC(=O)[C@H](CCCCN)NC(=O)CCSCc3cccc(c3)CSCCNC(=O)[C@]3(C)CCCN3C2=O)cc1 [Compound 025] (cyclo(K[dA][Trp(5-F)][Trp(5-F)][αMeP]TY(Me)[αMeP][X4]))', '100 to 1000 nM'),
  ('C[C@@H](O)[C@@H]1NC(=O)[C@@H]2CCCN2C(=O)[C@H](Cc2c[nH]c3ccc(F)cc23)NC(=O)[C@H](Cc2c[nH]c3ccc(F)cc23)NC(=O)CNC(=O)[C@H](CCCCN)NC(=O)CCSCc2cc(F)cc(c2)CSC[C@@H](C(N)=O)NC(=O)[C@]2(C)CCCN2C(=O)[C@H](Cc2ccc(O)cc2)NC1=O [Compound 043] ([Mpa]KG[Trp(5-F)][Trp(5-F)]PTY[αMeP]C-NH2; linker 1-10 via mXylylene(5-F))', '100 to 1000 nM'),
  ('C[C@@]12CCCN1C(=O)[C@H](Cc1ccc(O)cc1)NC(=O)[C@H](Cc1cnc[nH]1)NC(=O)[C@H](CC(=O)O)NC(=O)[C@H](Cc1c[nH]c3cc(F)ccc13)NC(=O)[C@H](Cc1c[nH]c3ccc(F)cc13)NC(=O)CNC(=O)CCCCCNC(=O)c1ccc(cc1)C[C@@H](C(N)=O)NC2=O [Compound 313] ([Ahx]G[Trp(5-F)][Trp(6-F)]DHY[αMeP][Phe(4-COOH)]-NH2; lactam N-9)', '1000 to 12100 nM'),
  ('NCCCC[C@@H]1NC(=O)CCSCc2cccc(c2)CSC[C@@H](C(N)=O)NC(=O)[C@@H]2CCCN2C(=O)[C@H](Cc2ccc(-c3ccccc3)cc2)NC(=O)[C@H](Cc2c[nH]cn2)NC(=O)[C@H](CC(=O)O)NC(=O)[C@H](Cc2c[nH]c3ccc(F)cc23)NC(=O)[C@H](Cc2c[nH]c3ccc(F)cc23)NC(=O)CNC1=O [Compound 243] ([Mpa]KG[Trp(5-F)][Trp(5-F)]DH[Bip]PC-NH2; linker 1-10 via mXylylene)', '1000 to 12100 nM');

###

Target: PCSK9 (Homo sapiens (Human))
Sequence (Q8NBP7 153-692): as the sequence (Q8NBP7 153-692) above
Experiment: PCSK9 Alexa FRET Standard assay (displacement of AlexaFluor647 tagged cyclic peptide Reagent A)
Assay type: binding
Settings: IC50, PCSK9 Alexa FRET Standard assay, 0.5 nM PCSK9, 20 nM AF cyclic peptide Reagent A
Method: A solution containing 1 nM biotinylated PCSK9+2.5 nM Lance Streptavidin Europium (Strep-Eu) was made in 50 mM HEPES pH 7.4, 0.15 M NaCl, 5 mM CaCl2), 0.01% BSA, and 0.01% Surfactant P20. […] The reaction was incubated at room temperature for at least two hours prior to fluorescence measurements using an Envision Multilabel Reader. IC50 values were determined by fitting data to a sigmoidal dose-response curve using nonlinear regression. […]
Starred links: 1 amine or outer side, 2 acyl side, 3 side chain; linkers in the order of their positions; H or OH if unused. Positions of bridges follow the written chain, without caps; N, C: chain ends. Non-standard residues stand in square brackets, D forms with d. Residues, ends and D or L forms follow the SMILES beside them. *: point of attachment. X14 = CCOP(=O)(OCC)C(F)(F)c1ccc(C[C@H](N[*:1])C(=O)[*:2])cc1; Trp(5-F) = N[C@@H](Cc1c[nH]c2ccc(F)cc12)C(=O)O; Acetyl(2-(4-imidazolyl)) = O=C(Cc1c[nH]cn1)*; Pro(cis-4-F) = O=C(O)[C@@H]1C[C@H](F)CN1; X4 = O=C(CCSCc1cccc(CSCCN[*:1])c1)[*:2]; AEF = NCCOc1ccc(C[C@H](N)C(=O)O)cc1; αMeP = C[C@@]1(C(=O)O)CCCN1; X62 = O=C(C(F)F)*
Below, each entry is listed with its recorded IC50.
Recorded metric: IC50

INSERT INTO measurements (compound, assayed_target, recorded_metric, value_reported) VALUES
  ('C[C@@]12CCCN1C(=O)[C@H](Cc1ccc(O)cc1)NC(=O)CN1C(=O)[C@H](N=C(c3ccccc3)c3ccccc31)NC(=O)[C@H](Cc1c[nH]c3ccc(F)cc13)NC(=O)[C@H](Cc1c[nH]c3ccc(F)cc13)NC(=O)CNC(=O)[C@H](CCCCN)NC(=O)CCSCc1cccc(c1)CSC[C@@H](C(N)=O)NC2=O', 'PCSK9 (Homo sapiens (Human))', 'IC50', '0.11 to 100 nM'),
  ('COc1ccc(C[C@@H]2NC(=O)[C@H]([C@@H](C)O)NC(=O)[C@@H]3C[C@H](F)CN3C(=O)[C@H](Cc3c[nH]c4ccc(F)cc34)NC(=O)[C@H](Cc3c[nH]c4ccc(F)cc34)NC(=O)[C@@H](C)NC(=O)[C@H](CCCCN)NC(=O)[C@@H](NC(=O)Cc3cnc[nH]3)CC(=O)NCCOc3ccc(cc3)C[C@@H](C(N)=O)NC(=O)[C@]3(C)CCCN3C2=O)cc1 [Compound 105] ({Acetyl(2-(4-imidazolyl))}-DK[dA][Trp(5-F)][Trp(5-F)][Pro(cis-4-F)]TY(Me)[αMeP][AEF]-NH2; lactam 1-10)', 'PCSK9 (Homo sapiens (Human))', 'IC50', '1000 to 12100 nM'),
  ('C[C@@]12CCCN1C(=O)[C@H](Cc1ccc(O)cc1)NC(=O)CN1C(=O)[C@@H](N=C(c3ccccc3)c3ccccc31)NC(=O)[C@H](Cc1c[nH]c3ccc(F)cc13)NC(=O)[C@H](Cc1c[nH]c3ccc(F)cc13)NC(=O)CNC(=O)[C@H](CCCCN)NC(=O)CCSCc1cccc(c1)CSC[C@@H](C(N)=O)NC2=O', 'PCSK9 (Homo sapiens (Human))', 'IC50', '0.11 to 100 nM'),
  ('CCOP(=O)(OCC)C(F)(F)c1ccc(C[C@@H]2NC(=O)[C@H]([C@@H](C)O)NC(=O)[C@@H]3CCCN3C(=O)[C@H](Cc3c[nH]c4ccc(F)cc34)NC(=O)[C@H](Cc3c[nH]c4ccc(F)cc34)NC(=O)[C@@H](C)NC(=O)[C@H](CCCCN)NC(=O)CCSCc3cccc(c3)CSCCNC(=O)[C@]3(C)CCCN3C2=O)cc1 [Compound 131] (cyclo(K[dA][Trp(5-F)][Trp(5-F)]PT[X14][αMeP][X4]))', 'PCSK9 (Homo sapiens (Human))', 'IC50', '1000 to 12100 nM'),
  ('COc1ccc(C[C@@H]2NC(=O)[C@H]([C@@H](C)O)NC(=O)[C@@H]3C[C@H](F)CN3C(=O)[C@H](Cc3c[nH]c4ccc(F)cc34)NC(=O)[C@H](Cc3c[nH]c4ccc(F)cc34)NC(=O)[C@@H](C)NC(=O)[C@H](CCCCN)NC(=O)[C@@H](NC(=O)C(F)F)CC(=O)NCCOc3ccc(cc3)C[C@@H](C(N)=O)NC(=O)[C@]3(C)CCCN3C2=O)cc1 [Compound 113] (X62-DK[dA][Trp(5-F)][Trp(5-F)][Pro(cis-4-F)]TY(Me)[αMeP][AEF]-NH2; lactam 1-10)', 'PCSK9 (Homo sapiens (Human))', 'IC50', '21000 to 50000 nM');

Data origin: patent US11530244B2
